// reported EC50 per item
Biological target: hGIPR (Homo sapiens)
Construct: expressed in transfected cells; host or cells: CHO cells carrying a CRE-luciferase reporter gene
Sequence (P48546 22-466): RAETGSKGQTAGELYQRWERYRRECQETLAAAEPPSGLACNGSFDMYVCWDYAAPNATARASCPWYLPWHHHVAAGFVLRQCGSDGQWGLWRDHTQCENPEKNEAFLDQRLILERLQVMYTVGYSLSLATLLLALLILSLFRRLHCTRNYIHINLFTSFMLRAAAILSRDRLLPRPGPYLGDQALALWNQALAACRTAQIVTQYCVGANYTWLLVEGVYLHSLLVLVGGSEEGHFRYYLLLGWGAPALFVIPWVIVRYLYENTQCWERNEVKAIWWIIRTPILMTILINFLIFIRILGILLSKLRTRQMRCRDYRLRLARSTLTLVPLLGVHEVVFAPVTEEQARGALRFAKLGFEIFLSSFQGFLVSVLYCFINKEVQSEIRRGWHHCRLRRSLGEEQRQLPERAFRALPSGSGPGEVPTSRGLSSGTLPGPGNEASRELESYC
Test: hGIPR CreLuc reporter gene assay in 0.5% and 100% plasma
Assay type: cell-based
Settings: CreLuc reporter gene assay, 0.5% human plasma; read-out: hGIPR 0.5% hP
Starred links: 1 amine or outer side, 2 acyl side, 3 side chain; linkers in the order of their positions; H or OH if unused. Non-standard residues stand in square brackets, D forms with d. Groups on a side chain read outwards from the residue. No end group written: not given here. *: point of attachment. C20 diacid = O=C(O)CCCCCCCCCCCCCCCCCCC(=O)*; C18 diacid = O=C(O)CCCCCCCCCCCCCCCCC(=O)*; γGlu = O=C(O)[C@H](CCC(=O)[*:2])N[*:1]; εLys = N[C@@H](CCCCN[*:1])C(=O)[*:2]; NMeR = CN[C@@H](CCCNC(=N)N)C(=O)O; hArg = N=C(N)NCCCC[C@H](N)C(=O)O; AEEA = NCCOCCOCC(=O)O; Aib = CC(C)(N)C(=O)O; Ahx = NCCCCCC(=O)O
metric: EC50 (nM)

substance: Y[Aib]EGTFTSDYSI[Aib]LEKQAE[Aib]AFVQWLIK([AEEA-AEEA-γGlu-γGlu-γGlu-γGlu-C20 diacid])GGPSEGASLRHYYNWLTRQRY-NH2 [Compound 219]
target.or.test.system: hGIPR (Homo sapiens)
metric: EC50
reported.value: 0.46
//
substance: H-Y[Aib]EGTFTSDYSI[Aib]LEKQAQ[Aib]AFVEYLIK([εLys-γGlu-γGlu-γGlu-γGlu-γGlu-γGlu-C20 diacid])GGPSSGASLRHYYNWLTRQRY-NH2 [Compound 135]
target.or.test.system: hGIPR (Homo sapiens)
metric: EC50
reported.value: 0.11
//
substance: H-Y[Aib]EGTFTSDYSI[Aib]LEKQAQ[Aib]AFVEWLIK([εLys-γGlu-γGlu-γGlu-γGlu-γGlu-γGlu-C20 diacid])GGPSSGASLRHYYNWLT[hArg]QR[dY]-NH2 [Compound 71]
target.or.test.system: hGIPR (Homo sapiens)
metric: EC50
reported.value: 0.13
//
substance: H-Y[Aib]EGTFTSDYSI[Aib]LEK(Ac)QAQ[Aib]AFVEWLIK([εLys-γGlu-γGlu-γGlu-γGlu-γGlu-γGlu-C20 diacid])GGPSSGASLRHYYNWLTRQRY-NH2 [Compound 192]
target.or.test.system: hGIPR (Homo sapiens)
metric: EC50
reported.value: 0.28
//
substance: H-Y[Aib]EGTFTSDYSI[Aib]LEKQAQ[Aib]EFVEWLIK([γGlu-γGlu-γGlu-γGlu-C20 diacid])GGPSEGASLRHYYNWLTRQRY-NH2 [Compound 271]
target.or.test.system: hGIPR (Homo sapiens)
metric: EC50
reported.value: 0.62
//
substance: H-Y[Aib]EGTFTSDYSI[Aib]LEKQAQ[Aib]AFVQWLIK([εLys-γGlu-γGlu-γGlu-γGlu-γGlu-γGlu-C20 diacid])GGPSEGASLRHYYNWLTRQ[NMeR]Y-NH2 [Compound 125]
target.or.test.system: hGIPR (Homo sapiens)
metric: EC50
reported.value: 0.28
//
substance: H-Y[Aib]EGTFTSDYSI[Aib]LEKQAE[Aib]AFVQWLIK([AEEA-AEEA-γGlu-γGlu-γGlu-γGlu-C18 diacid])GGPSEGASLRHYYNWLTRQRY-NH2 [Compound 156]
target.or.test.system: hGIPR (Homo sapiens)
metric: EC50
reported.value: 0.16
//
substance: H-Y[Aib]EGTFTSDYSI[Aib]LEAAKQ[Aib]AFVEWLIK([εLys-γGlu-γGlu-γGlu-γGlu-γGlu-γGlu-C20 diacid])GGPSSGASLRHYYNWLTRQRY-NH2 [Compound 25]
target.or.test.system: hGIPR (Homo sapiens)
metric: EC50
reported.value: 0.98
//
substance: H-Y[Aib]EGTFTSDYSI[Aib]LEKQAQ[Aib]AFVQWLIK([AEEA-AEEA-γGlu-γGlu-γGlu-γGlu-γGlu-C18 diacid])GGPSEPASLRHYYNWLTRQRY-NH2 [Compound 142]
target.or.test.system: hGIPR (Homo sapiens)
metric: EC50
reported.value: 0.28
//
substance: H-Y[Aib]EGTFTSDYSI[Aib]LEKQAE[Aib]AFVQWLIK([εLys-γGlu-γGlu-γGlu-γGlu-γGlu-γGlu-C18 diacid])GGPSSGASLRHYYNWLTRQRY-NH2 [Compound 51]
target.or.test.system: hGIPR (Homo sapiens)
metric: EC50
reported.value: 0.23
//
substance: H-Y[Aib]EGTFTSDYSI[Aib]LEKQAQ[Aib]AFVQWLIK([AEEA-AEEA-γGlu-γGlu-γGlu-γGlu-C18 diacid])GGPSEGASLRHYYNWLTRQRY-NH2 [Compound 270]
target.or.test.system: hGIPR (Homo sapiens)
metric: EC50
reported.value: 0.12
//
substance: H-Y[Aib]EGTFTSDYSI[Aib]LEKQAQ[Aib]EFVEWLIK([Ahx-γGlu-γGlu-γGlu-γGlu-γGlu-γGlu-C18 diacid])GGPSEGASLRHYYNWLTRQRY-NH2 [Compound 279]
target.or.test.system: hGIPR (Homo sapiens)
metric: EC50
reported.value: 0.71
